target-desc: UniProt P53779
Sequence (P53779 whole entry, species assumed): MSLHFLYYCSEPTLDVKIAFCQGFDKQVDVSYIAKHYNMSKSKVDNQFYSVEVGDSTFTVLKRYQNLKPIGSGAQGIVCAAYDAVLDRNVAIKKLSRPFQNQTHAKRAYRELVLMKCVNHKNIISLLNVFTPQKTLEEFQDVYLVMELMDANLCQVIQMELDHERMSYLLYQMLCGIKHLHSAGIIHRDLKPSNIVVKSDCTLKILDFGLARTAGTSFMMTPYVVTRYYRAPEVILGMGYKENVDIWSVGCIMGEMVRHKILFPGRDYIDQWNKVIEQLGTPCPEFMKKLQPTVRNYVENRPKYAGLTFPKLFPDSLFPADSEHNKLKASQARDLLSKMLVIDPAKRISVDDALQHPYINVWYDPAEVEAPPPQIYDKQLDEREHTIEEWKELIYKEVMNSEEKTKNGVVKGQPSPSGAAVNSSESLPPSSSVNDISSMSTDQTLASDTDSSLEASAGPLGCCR
pIC50: −log10 of the molar value.
Returns one of y or n; y when pIC50 is >= 6.

| chem-smiles | target-desc | discrete-label |
| --- | --- | --- |
| CN1CCC(c2nc(-c3c[nH]c4ncc([C@H]5CC[C@H](N6CCCOCC6)CC5)cc34)cs2)CC1 | UniProt P53779 | y |
| O=C(c1nc(-c2c[nH]c3ncc(C4CCCCC4)cc23)cs1)N1CCOCC1 | UniProt P53779 | y |
| O=C(c1nc(-c2c[nH]c3ncc([C@H]4CC[C@H](N5CCOCC5)CC4)cc23)cs1)N1CCCCC1 | UniProt P53779 | y |
| c1ncc(-c2c[nH]c3ncc([C@H]4CC[C@H](N5CCCOCC5)CC4)cc23)s1 | UniProt P53779 | y |
| Cc1nc(-c2c[nH]c3ncc([C@H]4CC[C@H](N5CCCC5)CC4)cc23)cs1 | UniProt P53779 | n |

Reference source: patent US7951802B2
